System: MOLM-13 cells
Experiment: In vitro cell proliferation assay (CellTiter-Glo), MOLM-13
Format: cell-based
Conditions: human acute leukemia cells bearing FLT3-ITD mutation, 72 h
Method: The human acute leukemia MOLM-13 AND MV-4-11 cells, bearing a FLT3-ITD mutation, were seeded (5000 cells/well) in white 384 well-plates in complete medium (RPMI 1640 plus 10% Fetal bovine serum) and treated with compounds dissolved in 0.1% DMSO, 24 h after seeding. […] CellTiter-Glo is a homogenous method based on the quantification of the ATP present, an indicator of metabolitically active cells. ATP was quantified using a system based on luciferase and D-luciferin resultant into light generation. […]
measured-parameter: pIC50
Give bare numbers, as −log10 of the molar value.

# input Give reported pIC50 value for "CN(C)c1ccc(C(=O)Nc2n[nH]c3cc(OCc4ccccc4)ccc23)cc1"
# output 5.41

meta.source: patent US10478423B2
